Recorded values, source patent US12606540B2.

In this section we review reported Cmax values for a set of compounds.
assay: Pharmacokinetic evaluation in mice (IV and PO); assay type: in vivo, female Balb/c mice; conditions: female, Balb/c, mouse; PO 1 mg/kg, plasma
propertyLabel: Cmax (nM)

entrySmiles: CCn1c(CO)nn(-c2cc(O[C@@H](C)C(F)(F)F)c(/C(F)=C/c3ncccc3Cl)cc2F)c1=O
experimentalResult: 794
--
entrySmiles: CCn1c(CO)nn(-c2cc(O[C@@H](C)C(F)(F)F)c(/C(F)=C/c3cccnc3C(F)F)cc2F)c1=O
experimentalResult: 787
--
entrySmiles: CCn1c(CO)nn(-c2cc(O[C@@H](C)C(F)(F)F)c(/C(F)=C/c3cccnc3Cl)cc2F)c1=O
experimentalResult: 872
--
entrySmiles: CCn1c(CO)nn(-c2cc(O[C@@H](C)C(F)(F)F)c(/C(F)=C/c3cccnc3OC)cc2F)c1=O
experimentalResult: 935

----------
molecular target: DHODH enzyme (Homo sapiens, UniProt Q02127); experiment: DHODH enzyme inhibitory activity in vitro (resazurin fluorescence); assay type: biochemical; conditions: 5 nM DHODH, 15 μM L-DHO, 80 μM Resazurin
Sequence (Q02127 whole entry): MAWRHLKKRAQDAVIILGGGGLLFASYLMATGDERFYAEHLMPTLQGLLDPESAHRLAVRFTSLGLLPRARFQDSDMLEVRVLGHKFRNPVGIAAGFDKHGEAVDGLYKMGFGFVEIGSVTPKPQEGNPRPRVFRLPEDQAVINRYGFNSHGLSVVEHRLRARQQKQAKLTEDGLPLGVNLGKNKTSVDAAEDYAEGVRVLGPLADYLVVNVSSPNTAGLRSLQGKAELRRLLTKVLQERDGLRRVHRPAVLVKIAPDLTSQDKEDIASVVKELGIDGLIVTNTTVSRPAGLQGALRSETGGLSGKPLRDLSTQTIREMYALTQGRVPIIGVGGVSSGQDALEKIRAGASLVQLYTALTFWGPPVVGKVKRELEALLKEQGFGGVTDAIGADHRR
pIC50: −log10 of the molar value.
In this section we review reported pIC50 values for a set of compounds.
propertyLabel: pIC50

entrySmiles: CCn1c(CO)nn(-c2cc(O[C@@H](C)C(F)(F)F)c(/C(F)=C/c3c(F)cncc3Cl)cc2F)c1=O
experimentalResult: 8.41
--
entrySmiles: CCn1c(CO)nn(-c2cc(O[C@@H](C)C(F)(F)F)c(/C(F)=C/c3ncccc3C(F)F)cc2F)c1=O
experimentalResult: 8.10
--
entrySmiles: CCn1c(CO)nn(-c2cc(O[C@@H](C)C(F)(F)F)c(/C(F)=C/c3cccnc3)cc2F)c1=O
experimentalResult: 8.14
--
entrySmiles: CCn1c(CO)nn(-c2cc(O[C@@H](C)C(F)(F)F)c(/C(F)=C/c3cnccc3C)cc2F)c1=O
experimentalResult: 8.82
--
entrySmiles: CCn1c(CO)nn(-c2cc(O[C@@H](C)C(F)(F)F)c(/C(F)=C/c3ncccc3Cl)cc2F)c1=O
experimentalResult: 8.46
